# Species on record: Rattus norvegicus
# protocol_text: Activity to induce the elevation of HDL(High Density Lipoproteins)-Cholesterol of male Wistar rats
# Format: functional
# Design: concentration or dose not given beside the values
reported_endpoint: HDL-cholesterol change relative to control (%)

INSERT INTO assay_data (compound, endpoint_result) VALUES
  ('COP(=O)(OC)C(CCc1ccccc1)P(=O)(OC)OC', 40),
  ('CCOP(=O)(OCC)C(CCOc1ccccc1)P(=O)(OCC)OCC', 29),
  ('COP(=O)(OC)C(O)(c1ccccc1)P(=O)(OC)OC', 13),
  ('CCOP(=O)(OCC)C(CCCc1ccccc1)P(=O)(OCC)OCC', 62),
  ('COP(=O)(OC)C(Cc1ccccc1)P(=O)(OC)OC', 32),
  ('COP(=O)(OC)OC(c1ccc(F)cc1)P(=O)(OC)OC (stereo not drawn)', 40),
  ('O=P(O)(O)C(CCCc1ccccc1)P(=O)(O)O', 3),
  ('CCOP(=O)(OCC)C(Cc1ccc(Cl)cc1)P(=O)(OCC)OCC', 26),
  ('COP(=O)(OC)C(O)(c1ccc(C(=O)c2ccc(Cl)cc2)cc1)P(=O)(OC)OC', 22),
  ('CCCCOP(=O)(OCCCC)C(Cc1ccc(Cl)cc1)P(=O)(OCCCC)OCCCC', 0),
  ('COP(=O)(OC)C(O)(C(C)(C)Oc1ccc(Cl)cc1)P(=O)(OC)OC', 8),
  ('COP(=O)(OC)OC(C(C)(C)Cc1ccc(Cl)cc1)P(=O)(OC)OC (stereo not drawn)', -30),
  ('COP(=O)(OC)OC(c1cc(C)ccc1C)P(=O)(OC)OC (stereo not drawn)', 10),
  ('COP(=O)(OC)OC(c1ccc(Cl)cc1Cl)P(=O)(OC)OC (stereo not drawn)', 51),
  ('COP(=O)(OC)OC(c1ccc(-c2ccccc2)cc1)P(=O)(OC)OC (stereo not drawn)', 24),
  ('CCOP(=O)(OCC)C(Cc1ccccc1)P(=O)(OCC)OCC', 5),
  ('COP(=O)(OC)OC(c1ccc(C)cc1)P(=O)(OC)OC (stereo not drawn)', 4),
  ('COP(=O)(O)C(Cc1ccc(Cl)cc1)P(=O)(O)OC (stereo not drawn)', 27);
